This collection of values is drawn from patent US20260242735A1.

Let's look at some binders and their measured Mean % WT Binding.
ASSAY TARGET: human CD33 S131W (human, UniProt P20138 18-364)
Sequence (P20138 18-364 S131W limits assumed): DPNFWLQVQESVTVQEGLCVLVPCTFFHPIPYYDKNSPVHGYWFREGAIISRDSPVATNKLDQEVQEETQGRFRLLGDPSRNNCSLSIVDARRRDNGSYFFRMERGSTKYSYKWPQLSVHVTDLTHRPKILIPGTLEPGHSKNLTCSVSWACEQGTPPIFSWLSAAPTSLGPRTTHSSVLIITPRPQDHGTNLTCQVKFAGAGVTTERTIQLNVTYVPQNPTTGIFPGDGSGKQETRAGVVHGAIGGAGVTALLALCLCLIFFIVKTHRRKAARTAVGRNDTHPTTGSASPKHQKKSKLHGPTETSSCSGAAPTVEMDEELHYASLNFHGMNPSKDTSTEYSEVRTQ
ASSAY SUMMARY: flow cytometry, HEK293-T, IgG;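 also: CD33 point mutants transiently expressed, antibody binding measured by fluorescence in duplicate, background subtracted and scaled to binding on wild-type CD33 as 100%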
Enter your answer as a number in % WT binding; do not include the unit.

# example entries with known answers
>  <BINDER>
Refmab #2 (antibody, human IgG1, V domains shown, tested in IgG format) VH: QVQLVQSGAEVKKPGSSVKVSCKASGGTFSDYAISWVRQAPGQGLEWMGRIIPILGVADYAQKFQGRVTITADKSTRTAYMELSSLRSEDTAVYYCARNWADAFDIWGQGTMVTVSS VL: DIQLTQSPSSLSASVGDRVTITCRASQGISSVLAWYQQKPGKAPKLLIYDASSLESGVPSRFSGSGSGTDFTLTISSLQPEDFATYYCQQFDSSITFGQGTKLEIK

>  <Mean % WT Binding, % WT binding>
92.4

$$$$
>  <BINDER>
Refmab #3 (antibody, human IgG1, V domains shown, tested in IgG format) VH: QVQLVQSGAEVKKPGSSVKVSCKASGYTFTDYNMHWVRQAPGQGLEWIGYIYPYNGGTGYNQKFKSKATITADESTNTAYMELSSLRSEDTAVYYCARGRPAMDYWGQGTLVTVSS VL: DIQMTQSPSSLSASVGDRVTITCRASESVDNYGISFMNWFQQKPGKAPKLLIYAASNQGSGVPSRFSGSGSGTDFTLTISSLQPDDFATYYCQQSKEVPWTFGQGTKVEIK

>  <Mean % WT Binding, % WT binding>
91.9

$$$$

Read the next record carefully.
Kindly note the recorded Mean % WT Binding for Refmab #1 (antibody, human IgG1, V domains shown, tested in IgG format; also called hP67.6) VH: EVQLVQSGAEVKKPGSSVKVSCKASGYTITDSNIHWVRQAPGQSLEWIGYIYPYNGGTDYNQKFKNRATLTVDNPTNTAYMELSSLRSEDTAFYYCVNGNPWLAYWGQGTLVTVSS VL: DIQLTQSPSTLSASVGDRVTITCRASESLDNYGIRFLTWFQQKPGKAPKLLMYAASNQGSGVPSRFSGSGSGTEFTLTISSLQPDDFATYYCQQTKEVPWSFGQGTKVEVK , which is 97.6
